B1: ACSBG2 (parent)
chain: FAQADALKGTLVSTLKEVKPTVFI

Variants of: B1
test-name: protein stability index of a GFP-peptide fusion (GPS, HEK-293T) (PSI 1-6); higher = more stable;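 note: lentivirally expressed fusions sorted by FACS into six bins by GFP to DsRed ratio, PSI derived from sequencing read proportions per bin multiplied by bin number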
condition-notes: c terminus: a fixed tail appended

mutations: Q3K
protein stability index: 2.06
--
mutations: S13Y
protein stability index: 3.19
--
mutations: F23R
protein stability index: 2.64
--
mutations: P20D
protein stability index: 1.51
--
mutations: L11V
protein stability index: 2.08
